// provenance: ChEMBL document CHEMBL3507680

test.protocol: Human HepG2 cell viability assay in 384 well format
Type: toxicity, cell-based
Set-up: dose 125 nL, time 70.5 hour; concentration not given beside the values
reported.conditions: HepG2 cells, read-out: Inhibition
metric.name: cytotoxicity at 70.5 h (%)
Provide the reading as a plain figure in %.

Please review the following examples before continuing.
Given CCCS(=O)(=O)NC(=O)c1cc(C)n(-c2ccccc2)n1 , state its recorded cytotoxicity at 70.5 h.
7.41

Given O=C(NCc1ccccn1)NCC(c1ccco1)N1CCCC1 (stereo unspecified) , state its recorded cytotoxicity at 70.5 h.
-1.51

Given Clc1cccc(-n2cnnn2)c1N1CCCC1 , state its recorded cytotoxicity at 70.5 h.
3.81

Given Cc1cc(C)n(-c2cncc(NCCNS(C)(=O)=O)n2)n1 , state its recorded cytotoxicity at 70.5 h.
2.9

Given Cn1cc(CN2CCOC(CCNC(=O)c3ccsc3)C2)cn1 (stereo unspecified) , state its recorded cytotoxicity at 70.5 h.
-0.896

Further cases:
Given Cc1nc(-c2ccccc2)n(CC(=O)NC(C2CC2)C2CC2)n1 , state its recorded cytotoxicity at 70.5 h.
-4.87

Given O=C(C[S+]([O-])C1CCCC1)NCCOc1cccc(Cl)c1 (stereo unspecified) , state its recorded cytotoxicity at 70.5 h.
-6.11

Given CN(C)C(=O)CN1C[C@H]2CCN(c3ncccn3)CC[C@H]2S1(=O)=O , state its recorded cytotoxicity at 70.5 h.
-0.338

Given Cn1cc(CN2C[C@H](N3CCOCC3)[C@@H]3OCCC[C@@H]32)cn1 , state its recorded cytotoxicity at 70.5 h.
-4.71

Given COc1cccc(CCCN2CCC(N(C)S(C)(=O)=O)CC2)c1 , state its recorded cytotoxicity at 70.5 h.
4.63

Given Cc1cc(NC(=O)N2CCOCC2)nn1-c1ccccc1Cl , state its recorded cytotoxicity at 70.5 h.
-5.4

* * *

test.protocol: Human HepG2 cell viability assay in 384 well format
Type: toxicity, cell-based
Parameters: dose 125 nL, time 70.5 hour; concentration not given beside the values
reported.conditions: HepG2 cells, read-out: Inhibition
Here the recorded cytotoxicity at 70.5 h is given for each entry.
Provide the reading as a plain figure in %.

Given Cn1ccc(C(=O)N2CCOC(c3ccccc3)C2)cc1=O (configuration not stated) , state its recorded cytotoxicity at 70.5 h.
-7.42

Given CSc1ccccc1C(C(=O)O)N(C)CC1CCOCC1 (configuration not stated) , state its recorded cytotoxicity at 70.5 h.
3.4

Given COC(=O)c1ccc(CNC(=O)CN2C[C@@H](NC(C)=O)[C@H](C(C)C)C2)o1 , state its recorded cytotoxicity at 70.5 h.
-6.07

Given CCN1CCC2(CC1)CC(NC(=O)NC)c1cc(C)ccc12 (configuration not stated) , state its recorded cytotoxicity at 70.5 h.
-6.74

Given Cn1nnc2c1C(COCc1ccccn1)CN(C(=O)c1ccsc1)C2 (configuration not stated) , state its recorded cytotoxicity at 70.5 h.
-6.33

Given Fc1cccc(-c2nnn3c2COCC(CNCc2nccs2)C3)c1 (configuration not stated) , state its recorded cytotoxicity at 70.5 h.
-11.8

Given CCn1nc(C)c2nc(C(C)C)nc(NC)c21 , state its recorded cytotoxicity at 70.5 h.
20.9

Given COCCN1CCC(NCc2cc(F)ccc2F)C1 (configuration not stated) , state its recorded cytotoxicity at 70.5 h.
22.5

Given CSCC(=O)N1C[C@H]2CC[C@@H]1CN(Cc1ccccc1)C2 , state its recorded cytotoxicity at 70.5 h.
-3.17

Given CC(=O)N1CCOC(c2cncc(CCC(=O)N(C)C)n2)C1 (configuration not stated) , state its recorded cytotoxicity at 70.5 h.
5

Further cases:
Given Cc1nn(CCC(=O)NC2CCS(=O)(=O)C2)c(C)c1Br (configuration not stated) , state its recorded cytotoxicity at 70.5 h.
-0.845

Given O=c1[nH][nH]cc1-c1ccnc(NCCN2CCCC2)n1 , state its recorded cytotoxicity at 70.5 h.
50.4

Given O=C(CC1CN(Cc2ccccc2)CCO1)NC1CCSCC1 (configuration not stated) , state its recorded cytotoxicity at 70.5 h.
3.03
